- Target Or System: full-length beta-Catenin (Uniprot ID P35222) (Homo sapiens (Human)) (UniProt P35222)
- Sequence (P35222 whole entry): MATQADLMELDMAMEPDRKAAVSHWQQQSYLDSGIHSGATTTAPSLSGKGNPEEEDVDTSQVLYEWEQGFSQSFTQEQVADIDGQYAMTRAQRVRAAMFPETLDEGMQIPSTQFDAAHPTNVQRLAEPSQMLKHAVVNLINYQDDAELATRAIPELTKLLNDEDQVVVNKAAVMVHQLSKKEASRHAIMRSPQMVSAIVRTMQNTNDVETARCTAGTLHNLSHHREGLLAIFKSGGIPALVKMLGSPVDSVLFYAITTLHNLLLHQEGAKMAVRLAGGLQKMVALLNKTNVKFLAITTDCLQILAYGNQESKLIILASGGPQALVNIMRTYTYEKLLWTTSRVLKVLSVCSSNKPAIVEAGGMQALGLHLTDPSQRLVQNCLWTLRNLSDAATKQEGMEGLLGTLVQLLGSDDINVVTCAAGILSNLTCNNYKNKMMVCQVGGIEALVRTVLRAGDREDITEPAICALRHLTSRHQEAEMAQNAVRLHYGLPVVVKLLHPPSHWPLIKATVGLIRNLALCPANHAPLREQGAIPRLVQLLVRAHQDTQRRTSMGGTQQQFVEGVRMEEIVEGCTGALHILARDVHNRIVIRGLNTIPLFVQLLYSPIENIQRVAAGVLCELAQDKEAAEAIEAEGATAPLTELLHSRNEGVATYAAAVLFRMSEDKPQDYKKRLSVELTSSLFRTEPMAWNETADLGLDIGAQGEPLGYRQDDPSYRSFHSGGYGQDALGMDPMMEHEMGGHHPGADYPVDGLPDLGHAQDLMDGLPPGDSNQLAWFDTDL
- Method Summary: competition fluorescence polarization; full-length beta-catenin, 5FAM-TCF4(10-53) probe as competitor
pIC50: −log10 of the molar value. Starred links: 1 amine or outer side, 2 acyl side, 3 side chain; linkers in the order of their positions; H or OH if unused. Positions of bridges follow the written chain, without caps; N, C: chain ends. Non-standard residues stand in square brackets, D forms with d. Primed or numbered codes have the meaning given here. B5(4) = 2,2-bis(4-pentenyl)glycine = 2-amino-2-(pent-4-en-1-yl)hept-6-enoic acid (stitching residue), C=CCCCC(CCCC=C)(N[*:1])C(=O)[*:2]; B5(5) = 2,2-bis(4-pentenyl)glycine, 2-amino-2-(pent-4-en-1-yl)hept-6-enoic acid (stitching residue), C=CCCCC(CCCC=C)(N[*:1])C(=O)[*:2]; B5 = 2-amino-2-(pent-4-en-1-yl)hept-6-enoic acid, C=CCCCC(CCCC=C)(N[*:1])C(=O)[*:2]; Bta = N[C@@H](Cc1csc2ccccc12)C(=O)O; αAllylPro = C=CC[C@@]1(C(=O)O)CCCN1; tBuAla = CC(C)(C)C[C@H](N)C(=O)O; S8 = C=CCCCCCC[C@](C)(N)C(=O)O; Abu = CC[C@H](N)C(=O)O
Endpoint Name: pIC50

Example cases with answers are listed next.
Binder: Ac-[αAllylPro]D[Abu][B5(4)]DEAAFQ[S8]F[Bta]H-NH2 (staple 1-4, 4-11) [I-570]
pIC50: 7.25

Binder: Ac-[αAllylPro]D[Abu][B5(4)]DEAAFQ[S8]F[Bta]Q-NH2 (staple 1-4, 4-11) [I-569]
pIC50: 7.38

1 = Ac-[αAllylPro]D[Abu][B5]DDAAFN[S8]F[Bta]H-NH2 (staple 1-4, 4-11) [I-574]
2 = Ac-[αAllylPro]D[Abu][B5(4)]DEAAFQ[S8]F[Bta]Q-NH2 (staple 1-4, 4-11) [I-568]
3 = Ac-[αAllylPro]D[tBuAla][B5(5)]DDAAFN[S8]F[Bta]H-NH2 (staple 1-4, 4-11) [I-582]
// query Highest pIC50 first, then in falling order down to the smallest. Thanks in advance for listing the labels in the requested order.
// result 3, 1, 2
(3: 7.76, 1: 7.44, 2: 7.14)
